Test system: MDA-MB-415
Assay: Clonogenic assay in fusion-negative MDA-MB-415 cells
Assay type: cell-based
Settings: Homo sapiens; MDA-MB-415 (fusion-negative); titrated lapatinib in combination with 0.5 µM tamoxifen, 10 to 13 days; read-out: IC50 (clonogenic viability)
Readout Kind: IC50
Numeric answer plus unit only.

Query: What is its IC50 for MDA-MB-415? Entry: CS(=O)(=O)CCNCc1ccc(-c2ccc3ncnc(Nc4ccc(OCc5cccc(F)c5)c(Cl)c4)c3c2)o1
Reply: 4 µM
